Tested on: ATP;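 also: ATP exposure 15 min at 22 °C before imaging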
Method notes: switch fluorescence ratio, 500 uM ATP over buffer (Cy3 cluster intensity, sum of 5 cycles each) (fold (ratio)); higher = stronger signal-on switching upon ATP binding; sequences stand for … in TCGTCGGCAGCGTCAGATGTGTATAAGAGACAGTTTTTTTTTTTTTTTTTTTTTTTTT…TC
Condition label: aptamer strand: ATP DNA aptamer (quencher-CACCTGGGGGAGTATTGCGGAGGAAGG + anchor), 100 nM annealed; ATP concentration: 500 uM
Observable: switch fluorescence ratio

> print(dat)
    residue.codes  experimental.system                 observable  observed.value
 1     GCAAGATTGA                  ATP  switch fluorescence ratio           0.999
 2     CGGCCTTGGT                  ATP  switch fluorescence ratio            1.01
 3     GACGTATATT                  ATP  switch fluorescence ratio            1.08
 4     TAACTGGTAC                  ATP  switch fluorescence ratio            1.13
 5     AATCGTGGTT                  ATP  switch fluorescence ratio               1
 6     CTGGTTGCGG                  ATP  switch fluorescence ratio           0.979
 7     TACTTAAGTT                  ATP  switch fluorescence ratio            1.01
 8     CATTATGTGA                  ATP  switch fluorescence ratio           0.987
 9     GTAATAAGGG                  ATP  switch fluorescence ratio            1.04
10     TTTCGCCGTT                  ATP  switch fluorescence ratio               1
11     AAGGGCAGTA                  ATP  switch fluorescence ratio           0.998
12     TATGAACTGC                  ATP  switch fluorescence ratio            1.04
13     TACTCAGTGG                  ATP  switch fluorescence ratio            1.01
14     ACAATTAAGC                  ATP  switch fluorescence ratio            1.04
15     TGGCTGCTGG                  ATP  switch fluorescence ratio           0.949
16     TTGGTAAAGA                  ATP  switch fluorescence ratio               1
17     TGAAGGTTGG                  ATP  switch fluorescence ratio            1.02
18     AATCAGTGGA                  ATP  switch fluorescence ratio           0.974
19     TGAGTACTGA                  ATP  switch fluorescence ratio            1.02
20     TTTTGAGGGG                  ATP  switch fluorescence ratio            1.01
21     CTGCTGCAGG                  ATP  switch fluorescence ratio            1.03
22     GGGTACGGGA                  ATP  switch fluorescence ratio            1.06
23     TAGGGTGTTG                  ATP  switch fluorescence ratio            1.01
24     GGGAGTAGGG                  ATP  switch fluorescence ratio           0.998
25     TTTAATGAAC                  ATP  switch fluorescence ratio               1
26     ATCGTATGTA                  ATP  switch fluorescence ratio           0.971
27     TTAGTTTCAG                  ATP  switch fluorescence ratio            1.01
28     AGTGCTTACG                  ATP  switch fluorescence ratio           0.995
29     AATGCAACAG                  ATP  switch fluorescence ratio            1.15
30     ATGAAAAGGA                  ATP  switch fluorescence ratio           0.971
31     CGTTCATTAG                  ATP  switch fluorescence ratio               1
32     GGGAGGTTGT                  ATP  switch fluorescence ratio           0.966
33     GTGCTTAATT                  ATP  switch fluorescence ratio               1
34     GTTTCTTTGG                  ATP  switch fluorescence ratio            1.06
35     TTAAATTTGC                  ATP  switch fluorescence ratio            1.03
36     CGTTACTTTT                  ATP  switch fluorescence ratio            1.02
37     TTTGGCTTGC                  ATP  switch fluorescence ratio            1.01
38     TGGACCGGTC                  ATP  switch fluorescence ratio           0.996
39     GGAATAATGT                  ATP  switch fluorescence ratio            1.03
40     GAGGAATCGA                  ATP  switch fluorescence ratio            1.04
41     AACTGGGGGT                  ATP  switch fluorescence ratio            1.02
42     GACTGCGGAG                  ATP  switch fluorescence ratio               1
43     AAAGAGCGGG                  ATP  switch fluorescence ratio            1.02
